# method: Quantitative High-Throughput drug screen in 47 multiple myeloma cell lines against the NCATS MIPE library collection: OPM2_DSMZ cell viability assay (AID 1919872); note: nearly all actives have a fitted effect of over 30% in size
# condition details: OPM2 myeloma viability, CellTiter-Glo ATP luminescence, 48 h; series mostly up to 45.8 µM
# Text: PI: Beverly A. Mock Ph.D. Laboratory of Cancer Biology and Genetics, Center for Cancer Research, National Cancer Institute, National Institute of Health, Bethesda, Maryland […] 5; Detector; 425V; Luminescence; Viewlux PerkinElmer. […] 1. […] Briefly, the corresponding myeloma cell lines were screened in 1,536-well plates with 500 cells, 5-uL per well for inhibition of cell viability (assessed by measuring ATP levels with CellTiterGlo). […]
Results filed as inconclusive are left out. Active and inactive are the calls of the source. Calls come from the whole dose curve; as a rule, active = well fitted cell-killing curve with a large enough effect; inconclusive = small, poorly fitted or top-dose-only effect, or effect the other way; inactive = no such curve, though single readings can be large or run the other way.
Outcome codes: active, inactive

[[record]]
molecule_smiles = "CCn1cc(C(=O)O)c(=O)c2cc(F)c(N3CCNCC3)nc21"
assigned_label = "inactive"

[[record]]
molecule_smiles = "Cc1ccnc2c1NC(=O)c1cccnc1N2C1CC1"
assigned_label = "inactive"

[[record]]
molecule_smiles = "CCN(C)C(=O)Oc1cccc([C@H](C)N(C)C)c1"
assigned_label = "inactive"

[[record]]
molecule_smiles = "CNNCc1ccc(C(=O)NC(C)C)cc1"
assigned_label = "active"

[[record]]
molecule_smiles = "CS(=O)(=O)c1ccc([C@@H](O)[C@@H](CO)NC(=O)C(Cl)Cl)cc1"
assigned_label = "inactive"


----------
# target: Luciferin 4-monooxygenase (Photinus pyralis) (UniProt P08659)
# method: Primary firefly luciferase (FLuc) qHTS assay for identification of artifact compounds. (AID 1845220);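 note: plate controls were DMSO vehicle for no effect and no enzyme for full effect; nearly all actives have a fitted effect of over 60% in size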
# condition details: purified firefly luciferase, luminescence, 5 min; at 54.1 µM (top of the series); series mostly up to 54.1 µM
# Source text: PI: Alexander Tropsha Ph.D. UNC Eshelman School of Pharmacy University of North Carolina, Chapel Hill, North Carolina Hits from high-throughput screening (HTS) of chemical libraries are often false positives due to their interference with the assay detection technology. […] Using these curated datasets, we developed and validated several Quantitative Structure-Interference Relationship (QSIR) models to predict nuisance behavior. […] 6; Detection; Luminescence, ViewLux microplate reader. […]
The source made the active and inactive calls. Calls follow the shape of the dose curve; as a rule, active = well fitted inhibition curve with a large enough effect; inconclusive = small, poorly fitted or top-dose-only effect; inactive = flat fitted curve, though single readings scatter.
endpoint name: outcome

[[record]]
molecule_smiles = "Cc1onc(-c2ccccc2Cl)c1C(=O)N[C@@H]1C(=O)N2[C@@H]1SC(C)(C)[C@@H]2C(=O)O"
endpoint_name = "outcome"
recorded_value = "inactive"

[[record]]
molecule_smiles = "CN(C)CCc1c[nH]c2ccc(C[C@H]3COC(=O)N3)cc12"
endpoint_name = "outcome"
recorded_value = "inactive"

[[record]]
molecule_smiles = "CC1(C)[C@H](C(=O)O)N2C(=O)C[C@H]2S1(=O)=O"
endpoint_name = "outcome"
recorded_value = "inactive"


----------
# method: qHTS profiling for inhibitors of Plasmodium falciparum proliferation (AID 504749);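 note: 0% = DMSO vehicle and full inhibition = artemisinin control; nearly all actives have a fitted effect of over 60% in size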
# condition details: P. falciparum in erythrocytes, SYBR Green DNA, 72 h; at 28.7 µM (top of the series); parasite line B
Records with an inconclusive call do not appear.
endpoint name: activity, negative = inhibition (%)

[[record]]
compound = "Cc1nnc(NS(=O)(=O)c2ccc(N)cc2)s1"
recorded_value = 11.3

[[record]]
compound = "CN(C)CCc1c[nH]c2ccc(CS(=O)(=O)N3CCCC3)cc12"
recorded_value = -4.67

[[record]]
compound = "CC(=O)Oc1ccccc1C(=O)Nc1ncc([N+](=O)[O-])s1"
recorded_value = 8

[[record]]
compound = "CC(C)(C#N)c1cc(Cn2cncn2)cc(C(C)(C)C#N)c1"
recorded_value = 14.1

[[record]]
compound = "CC(N)C12CC3CC(CC(C3)C1)C2 (stereo unspecified)"
recorded_value = -12

[[record]]
compound = "CC[C@H](NC(C)C)[C@H](O)c1ccc(O)c2[nH]c(=O)ccc12"
recorded_value = 5.44

[[record]]
compound = "COc1cccc(N(C)C(=S)Oc2ccc3c(c2)CCCC3)n1"
recorded_value = -22.3

[[record]]
compound = "Nc1nc(N)nc(-c2cc(Cl)ccc2Cl)n1"
recorded_value = -1.76

[[record]]
compound = "COc1ccc(-c2ccc3cc(C(=O)O)ccc3c2)cc1C12CC3CC(CC(C3)C1)C2"
recorded_value = 6.13

[[record]]
compound = "NCCCC(O)(P(=O)(O)O)P(=O)(O)O"
recorded_value = 1.25

[[record]]
compound = "CCC(C)(C)c1ccc(CC(C)CN2C[C@@H](C)O[C@@H](C)C2)cc1 (stereo partly specified)"
recorded_value = -10.4

[[record]]
compound = "CC(C)OC(=O)C(C(=O)OC(C)C)=C1SC=CS1"
recorded_value = 16.3

[[record]]
compound = "CCCc1cc(C(N)=S)ccn1"
recorded_value = 5.15

[[record]]
compound = "O=P(O)(O)C(O)(Cc1cccnc1)P(=O)(O)O"
recorded_value = 6.62

[[record]]
compound = "CN(CCOc1ccc(CC2SC(=O)NC2=O)cc1)c1ccccn1 (stereo unspecified)"
recorded_value = -10

[[record]]
compound = "CCCN[C@H]1CCc2nc(N)sc2C1"
recorded_value = 18.6

[[record]]
compound = "O=S(=O)(O)CCS"
recorded_value = 5.78

[[record]]
compound = "S=P(N1CC1)(N1CC1)N1CC1"
recorded_value = -0.221

[[record]]
compound = "O=c1cc(O)c(Cl)c[nH]1"
recorded_value = 8.72

[[record]]
compound = "Cc1ncc([N+](=O)[O-])n1CCO"
recorded_value = 6.06

[[record]]
compound = "CCc1cc(C(N)=S)ccn1"
recorded_value = 3.61


----------
# Test system: astro
# method: Drug repurposing screens with cells derived from glioblastoma tumor samples (AID 1345199); note: nearly all actives have a fitted effect of over 40% in size
# condition details: viability, ATP luminescence, 48 h; series mostly up to 45.9 µM
Inconclusive results are not listed. Calls of active or inactive are those of the source. Calls follow the shape of the dose curve; as a rule, active = well fitted inhibition curve with a large enough effect; inconclusive = small, poorly fitted or top-dose-only effect; inactive = flat fitted curve, though single readings scatter.
Classes used: TRUE = active, FALSE = inactive

[[record]]
compound = "CCn1cc(C(=O)O)c(=O)c2cc(F)c(N3CCNCC3)cc21"
target = "astro"
assigned_label = "FALSE"

[[record]]
compound = "CCOCC(O)COc1ccc(NC(=O)CC[S+](C)C)cc1 (stereo unspecified)"
target = "astro"
assigned_label = "FALSE"

[[record]]
compound = "COc1c(N2CCNC(C)C2)c(F)cc2c(=O)c(C(=O)O)cn(C3CC3)c12 (stereo unspecified)"
target = "astro"
assigned_label = "FALSE"

[[record]]
compound = "CCN(CC)CCn1c(=O)c(Cc2ccc(OC)cc2)nc2ccccc21"
target = "astro"
assigned_label = "FALSE"

[[record]]
compound = "Cc1ccnc2c1NC(=O)c1cccnc1N2C1CC1"
target = "astro"
assigned_label = "FALSE"

[[record]]
compound = "C1CCC(C(CC2CCCCN2)C2CCCCC2)CC1 (stereo unspecified)"
target = "astro"
assigned_label = "TRUE"

[[record]]
compound = "O=C(O)c1cn(C2CC2)c2cc(N3CCNCC3)c(F)cc2c1=O"
target = "astro"
assigned_label = "FALSE"

[[record]]
compound = "Cc1ncc([N+](=O)[O-])n1CCO"
target = "astro"
assigned_label = "FALSE"

[[record]]
compound = "CC(C)(C)NC(=O)[C@H]1CC[C@H]2[C@@H]3CC[C@H]4NC(=O)C=C[C@]4(C)[C@H]3CC[C@]12C"
target = "astro"
assigned_label = "FALSE"

[[record]]
compound = "CC1=NN(c2ccccc2)C(=O)C1"
target = "astro"
assigned_label = "FALSE"

[[record]]
compound = "COc1ccc(C(=O)CC(=O)c2ccc(C(C)(C)C)cc2)cc1"
target = "astro"
assigned_label = "FALSE"

[[record]]
compound = "CC[C@H](C)C(=O)O[C@H]1C[C@@H](C)C=C2C=C[C@H](C)[C@H](CC[C@@H]3C[C@@H](O)CC(=O)O3)[C@H]21"
target = "astro"
assigned_label = "TRUE"

[[record]]
compound = "NS(=O)(=O)c1cc2c(cc1Cl)NC(C(Cl)Cl)NS2(=O)=O (stereo unspecified)"
target = "astro"
assigned_label = "FALSE"

[[record]]
compound = "CCn1cc(C(=O)O)c(=O)c2cc(F)c(N3CCN(C)CC3)cc21"
target = "astro"
assigned_label = "FALSE"

[[record]]
compound = "OC(Cn1cncn1)(Cn1cncn1)c1ccc(F)cc1F"
target = "astro"
assigned_label = "FALSE"

[[record]]
compound = "NCCCC(O)(P(=O)(O)O)P(=O)(O)O"
target = "astro"
assigned_label = "FALSE"

[[record]]
compound = "COc1ccc(-c2ccc3cc(C(=O)O)ccc3c2)cc1C12CC3CC(CC(C3)C1)C2"
target = "astro"
assigned_label = "FALSE"

[[record]]
compound = "O=S(=O)(c1cccc2cnccc12)N1CCCNCC1"
target = "astro"
assigned_label = "FALSE"

[[record]]
compound = "Cc1cc(NS(=O)(=O)c2ccc(N)cc2)no1"
target = "astro"
assigned_label = "FALSE"

[[record]]
compound = "CCCOc1ccc(C(=O)OCCN(CC)CC)cc1N"
target = "astro"
assigned_label = "FALSE"

[[record]]
compound = "O=P(O)(O)C(O)(Cc1cccnc1)P(=O)(O)O"
target = "astro"
assigned_label = "FALSE"

[[record]]
compound = "CC(C)NCC(O)c1ccc(NS(C)(=O)=O)cc1 (stereo unspecified)"
target = "astro"
assigned_label = "FALSE"

[[record]]
compound = "O=C(O)c1cccnc1"
target = "astro"
assigned_label = "FALSE"

[[record]]
compound = "Cc1onc(-c2ccccc2Cl)c1C(=O)N[C@@H]1C(=O)N2[C@@H]1SC(C)(C)[C@@H]2C(=O)O"
target = "astro"
assigned_label = "FALSE"

[[record]]
compound = "NC(=O)c1cccnc1"
target = "astro"
assigned_label = "FALSE"

[[record]]
compound = "O=C(O)CCn1c2c(c3ccccc31)C[C@H](NS(=O)(=O)c1ccc(F)cc1)CC2"
target = "astro"
assigned_label = "FALSE"

[[record]]
compound = "CNS(=O)(=O)Cc1ccc2[nH]cc(CCN(C)C)c2c1"
target = "astro"
assigned_label = "FALSE"

[[record]]
compound = "Cc1cccc(Nc2ccncc2S(=O)(=O)NC(=O)NC(C)C)c1"
target = "astro"
assigned_label = "FALSE"

[[record]]
compound = "COc1cc2c(Nc3ccc(Br)cc3F)ncnc2cc1OCC1CCN(C)CC1"
target = "astro"
assigned_label = "TRUE"

[[record]]
compound = "Cc1oc(=O)oc1CN1CCN(c2cc3c(cc2F)c(=O)c(C(=O)O)c2n3C(C)S2)CC1 (stereo unspecified)"
target = "astro"
assigned_label = "FALSE"

[[record]]
compound = "CC(N)C12CC3CC(CC(C3)C1)C2 (stereo unspecified)"
target = "astro"
assigned_label = "FALSE"

[[record]]
compound = "Cc1nnc(NS(=O)(=O)c2ccc(N)cc2)s1"
target = "astro"
assigned_label = "FALSE"

[[record]]
compound = "Cc1noc(NS(=O)(=O)c2ccc(N)cc2)c1C"
target = "astro"
assigned_label = "FALSE"

[[record]]
compound = "CC(C(=O)O)c1ccc2c(c1)CC(=O)c1ccccc1S2 (stereo unspecified)"
target = "astro"
assigned_label = "FALSE"

[[record]]
compound = "NC(=O)N1c2ccccc2CC(=O)c2ccccc21"
target = "astro"
assigned_label = "FALSE"

[[record]]
compound = "CNC(=O)c1cc(Oc2ccc(NC(=O)Nc3ccc(Cl)c(C(F)(F)F)c3)cc2)ccn1"
target = "astro"
assigned_label = "TRUE"

[[record]]
compound = "Nc1[nH]c(=O)ncc1F"
target = "astro"
assigned_label = "FALSE"

[[record]]
compound = "S=P(N1CC1)(N1CC1)N1CC1"
target = "astro"
assigned_label = "FALSE"

[[record]]
compound = "CCCN[C@H]1CCc2nc(N)sc2C1"
target = "astro"
assigned_label = "FALSE"

[[record]]
compound = "COc1ccc2c(c1)c(CC(=O)OCC(=O)O)c(C)n2C(=O)c1ccc(Cl)cc1"
target = "astro"
assigned_label = "FALSE"

[[record]]
compound = "CCOC(=O)[C@H](CCc1ccccc1)N[C@H]1CS[C@H](c2cccs2)CN(CC(=O)O)C1=O"
target = "astro"
assigned_label = "FALSE"

[[record]]
compound = "CO[C@@]12[C@H](COC(N)=O)C3=C(C(=O)C(C)=C(N)C3=O)N1C[C@@H]1N[C@@H]12"
target = "astro"
assigned_label = "FALSE"

[[record]]
compound = "CC(C)(Sc1cc(C(C)(C)C)c(O)c(C(C)(C)C)c1)Sc1cc(C(C)(C)C)c(O)c(C(C)(C)C)c1"
target = "astro"
assigned_label = "FALSE"

[[record]]
compound = "CN1CCN(c2c(F)cc3c(=O)c(C(=O)O)cn4c3c2OCN4C)CC1"
target = "astro"
assigned_label = "FALSE"

[[record]]
compound = "Cn1nnc2c(C(N)=O)ncn2c1=O"
target = "astro"
assigned_label = "FALSE"

[[record]]
compound = "COc1ccc2cc3[n+](cc2c1OC)CCc1cc2c(cc1-3)OCO2"
target = "astro"
assigned_label = "TRUE"


Data origin, for the record: PubChem BioAssay (NCATS)
